- System: Echinochloa crus-galli
- experiment.summary: Herbicidal activity against barnyard grass (Echinochloa crusgalli L. Beauv.) as the dose required for 50% control
- Type: functional
Ranges used to classify -Log ED50: category 1 = under 0.4 M acre-1, category 2 = from 0.4 M acre-1 up to 0.9 M acre-1, category 3 = 0.9 M acre-1 and over

                                   compound  category_label
0  CC(C)c1ccc(CS(=O)(=O)c2cccc[n+]2[O-])cc1      category 1
1        O=S(=O)(Cc1ccccc1I)c1cccc[n+]1[O-]      category 2
2  O=S(=O)(Cc1c(Cl)ccc(Cl)c1Cl)c1cccc[n+]1[O-]      category 2

In: Sort into band: Cc1ccc(Cl)c(C(C)S(=O)(=O)c2cccc[n+]2[O-])c1 (stereo not drawn)
Out: category 3

In: State the band of COc1ccc(CS(=O)(=O)c2cccc[n+]2[O-])cc1OC
Out: category 1

* * *

- System: Echinochloa crus-galli
- experiment.summary: Herbicidal activity against barnyard grass (Echinochloa crusgalli L. Beauv.) as the dose required for 50% control
- Type: functional
Task for the reader: assign each of the following compounds its reported -Log ED50.
Numbers only, in M acre-1.

Consider the worked cases shown below.
In [3]: df
Out[3]:
                                   compound  measured_number
0  CC(c1ccc(S(C)(=O)=O)cc1)S(=O)(=O)c1cccc[n+]1[O-] (stereo unspecified)            -0.43
1  Cc1ccc(C)c(CS(=O)(=O)c2cccc[n+]2[O-])c1C              0.7
2  CC(c1cccc(Cl)c1F)S(=O)(=O)c1cccc[n+]1[O-] (stereo unspecified)             1.36

Go through the list and state -Log ED50 for each entry.
1. O=S(=O)(Cc1ccccc1Oc1ccccc1)c1cccc[n+]1[O-]
2. Cc1c(Cl)ccc(C(C)S(=O)(=O)c2cccc[n+]2[O-])c1Cl (stereo unspecified)
3. COc1ccc(C)cc1CS(=O)(=O)c1cccc[n+]1[O-]

Out:
1: -0.12; 2: 0.68; 3: 1.02

* * *

- System: Setaria viridis
- experiment.summary: Herbicidal activity against green foxtail (Setaria viridis L. Beauv.) as the dose required for 50% control
- Assay type: functional
Criterion: -Log ED50 meeting or surpassing 0.8 M acre-1. Met: y. Not met: n.

Example results:
>>> print(df.to_string())
                                   molecule  category_label
0  Cc1ccc(C)c(C(C)S(=O)(=O)c2cccc[n+]2[O-])c1 (stereo not drawn)               y
1   COc1ccc(CS(=O)(=O)c2cccc[n+]2[O-])cc1OC               n

In: Quick check, -Log ED50 >= 0.8 M acre-1? O=S(=O)(Cc1ccc(-c2ccccc2)cc1)c1cccc[n+]1[O-]
Out: n

In: Check the entry CC(c1c(F)cccc1Cl)S(=O)(=O)c1cccc[n+]1[O-] (stereo not drawn) : does -Log ED50 equal or exceed 0.8 M acre-1?
Out: y

In: Entry O=S(=O)(Cc1cccc(Br)c1)c1cccc[n+]1[O-] : is its -Log ED50 no less than 0.8 M acre-1?
Out: n

In: API: above_or_equal(metric=-Log ED50, cutoff=0.8 M acre-1) for item CC(c1ccc(S(C)(=O)=O)cc1)S(=O)(=O)c1cccc[n+]1[O-] (stereo not drawn)
Out: n
